These measurements were taken from the supplement of paper PMC11246515.

Hi there, I'd appreciate the recorded total protein half-life in vivo for every entry that follows.
- test_method_notes: total protein half-life in vivo (active degradation + dilution); higher = more stable protein
- settings: wild type E. coli NCM3722; growth: P-lim chemostat; doubling time 6 h
Number in h, nothing else.

**Query** I have this sequence here, "MMKTMRIAAIPGDGIGKEVLPEGIRVLQAAAERWGFALSFEQMEWASCEYYSHHGKMMPDDWHEQLSRFDAIYFGAVGWPDTVPDHISLWGSLLKFRREFDQYVNLRPVRLFPGVPCPLAGKQPGDIDFYVVRENTEGEYSSLGGRVNEGTEHEVVIQESVFTRRGVDRILRYAFELAQSRPRKTLTSATKSNGLAISMPYWDERVEAMAENYPEIRWDKQHIDILCARFVMQPERFDVVVASNLFGDILSDLGPACTGTIGIAPSANLNPERTFPSLFEPVHGSAPDIYGKNIANPIATIWAGAMMLDFLGNGDERFQQAHNGILAAIEEVIAHGPKTPDMKGNATTPQVADAICKIILR" , and I need its recorded total protein half-life in vivo.
**Result** 4.47

**Query** I have this sequence here, MNKVAQYYRELVASLSERLRNGERDIDALVEQARERVIKTGELTRTEVDELTRAVRRDLEEFAMSYEESLKEESDSVFMRVIKESLWQELADITDKTQLEWREVFQDLNHHGVYHSGEVVGLGNLVCEKCHFHLPIYTPEVLTLCPKCGHDQFQRRPFEP [P0AAT9] , and I need its recorded total protein half-life in vivo.
**Result** 5.95

**Query** I have this sequence here, "MTARYIAIDWGSTNLRAWLYQGDHCLESRQSEAGVTRLNGKSPAAVLAEVTTDWREEKTPVVMAGMVGSNVGWKVAPYLSVPACFSSIGEQLTSVGDNIWIIPGLCVSHDDNHNVMRGEETQLIGARALAPSSLYVMPGTHCKWVQADSQQINDFRTVMTGELHHLLLNHSLIGAGLPPQENSADAFTAGLERGLNTPAILPQLFEVRASHVLGTLPREQVSEFLSGLLIGAEVASMRDYVAHQHAITLVAGTSLTARYQQAFQAMGCDVTAVAGDTAFQAGIRSIAHAVAN" , and I need its recorded total protein half-life in vivo.
**Result** 4.75
